Assay: Human HepG2 cell viability assay in 384 well format
Format: toxicity, cell-based
Design: dose 125 nL, time 70.5 hour; concentration not given beside the values
Conditions: HepG2 cells, read-out: Inhibition
Listing of recorded cytotoxicity at 70.5 h by entry.
// note: answer is a bare numeric in %

Please review the entries below; each comes with its answer.
Q) Report cytotoxicity at 70.5 h for CCc1noc(C(C)N2CCC(N3CCCCC3)CC2)n1 (stereo not drawn) please.
A) -6.88

Q) What value of measured cytotoxicity at 70.5 h is listed for Cc1ccc(CN2CCC3(CC2)NC(=O)CC3c2ccccc2)s1 (stereo not drawn) ?
A) -6.55

Q) What value of cytotoxicity at 70.5 h has been recorded for this entry: "c1cc(CN2C[C@H](OCC3CCOCC3)[C@H]3COC[C@H]32)co1"
A) 12.4

Q) Dear colleague, I am looking for the recorded cytotoxicity at 70.5 h of the following compound: Cc1cnn(CC(C)NCc2nc(-c3ccoc3)no2)c1 (stereo not drawn)
A) 38.1

Q) Requested field: cytotoxicity at 70.5 h. Item: "CS(=O)(=O)NC(=O)CCc1cccc(OC2CCCC2)c1"
A) -5.51

Next:
Q) Reported cytotoxicity at 70.5 h for Cc1nc(N2CCCC(C)C2)nc2cc(S(C)(=O)=O)ccc12 (stereo not drawn) : what is it?
A) -2.18

Q) Given the compound "CCCc1nc(N2CCCCCC2)c2c(n1)c(C)nn2CC" , what is its reported cytotoxicity at 70.5 h?
A) -11.6

Q) Entry "Cc1cc(C)c2nc(CN3CCC(C#N)CC3)cc(O)c2c1" : reported cytotoxicity at 70.5 h = ?
A) -1.43

Q) Query: cytotoxicity at 70.5 h; subject: O=C(C1CCOC1)N1C[C@H]2CN(Cc3cccc(F)c3)C(=O)[C@H]2C1 (stereo partly drawn)
A) -0.77

Q) Any idea what cytotoxicity at 70.5 h was measured for "CCn1c(Cn2cccn2)nnc1C1CCN(Cc2ccc(C)o2)CC1" ?
A) 19.3

Q) # get_value(readout='cytotoxicity at 70.5 h', item= "CC(=O)Nc1nc(C(=O)NCc2ccc(N3CCCC3)nc2)cs1" )
A) -7.65

Q) Tell me the measured cytotoxicity at 70.5 h of "CCn1cc(CN2CCN(Cc3cc(C)cc(C)c3)C(=O)C2)cc1C#N" , please.
A) 15.6

Q) Item under review: "c1cnc(N2CCc3onc(CN4CCCC4)c3C2)cn1" . Reported cytotoxicity at 70.5 h?
A) 6.11

Q) State the recorded cytotoxicity at 70.5 h for this entry: CN(Cc1ccccc1C(F)(F)F)C(C(N)=O)c1ccccc1 (stereo not drawn)
A) 10.2

Q) Which cytotoxicity at 70.5 h reading was recorded for the compound CC(C)Cn1ccnc1CNC(=O)NC(C)c1nccs1 (stereo not drawn) ?
A) 1.43

Q) Please give the measured cytotoxicity at 70.5 h for this compound: CCn1nc(C)c(CN2CCC(c3ccn[nH]3)C2)c1C (stereo not drawn)
A) 4.91

Q) For the compound shown here, O=S(=O)(c1cc(F)ccc1F)N1CCCC1c1ccncc1 (stereo not drawn) , give the reported cytotoxicity at 70.5 h.
A) -3.85

Q) Value lookup for cytotoxicity at 70.5 h; key = "O=C(COc1ccc2c(c1)CCC2)NS(=O)(=O)c1cncc(Br)c1"
A) -2.54

Q) Report cytotoxicity at 70.5 h for "CS(=O)(=O)N1CCc2[nH]cnc2C12CCN(C(=O)c1ccc[nH]1)CC2" please.
A) -3.3

Q) // cytotoxicity at 70.5 h lookup, key: Cc1nc(C)n(CC2CCCN2c2ncnc3sc(C)c(C)c23)n1 (stereo not drawn)
A) -3.31

Q) # get_value(readout='cytotoxicity at 70.5 h', item= CC(C)c1cc(N2CCC(C(C)N3CCCC3)CC2)n2nccc2n1 (stereo not drawn) )
A) -3.16

---

cytotoxicity at 70.5 h overview
Assay: Human HepG2 cell viability assay in 384 well format
Type: toxicity, cell-based
Parameters: dose 125 nL, time 70.5 hour; concentration not given beside the values
Conditions: HepG2 cells, read-out: Inhibition
Enter your answer as a number in %; do not include the unit.

Example compounds with recorded cytotoxicity at 70.5 h:
Q) # lookup: cytotoxicity at 70.5 h of "CN(CCC#N)C(=O)Cn1cnc2c(Br)cccc2c1=O"
A) -1.58

Q) Which cytotoxicity at 70.5 h value belongs to "CC(C)[C@@H]1CN(C(=O)C2(c3ccccc3)CCN(C)CC2)C[C@H]1N(C)C" ?
A) 9.05

Next:
Q) Value lookup for cytotoxicity at 70.5 h; key = "COc1cc(C)nc(N2CCN(C(=O)c3ccccc3C)CC2)n1"
A) 43.9

Q) Item CC(C)(C)c1cn(CC2CCCN(c3cnc4ccccc4n3)C2)nn1 (centres undefined) has what recorded cytotoxicity at 70.5 h?
A) 0.262

Q) Sample "O=C(c1cnc2c(cnn2C2CCCC2)c1)N1CCCSCC1" — what was its cytotoxicity at 70.5 h?
A) -6.43

Q) I would be grateful if you could share the reported cytotoxicity at 70.5 h for COCC(O)CN1CCC(=O)N(CC(=O)C(C)(C)C)Cc2ccccc21 (centres undefined) .
A) -4.8

Q) So what does the record say about cytotoxicity at 70.5 h for "CCCS(=O)(=O)N1CCN(CC(F)(F)F)CC1" ?
A) -5.82

Q) I am curious: what cytotoxicity at 70.5 h value has been reported for "CCN1CC[C@@]2(C(=O)N(C)C)CCN(C(=O)NC(C)C)CC[C@@H]12" ?
A) -4.36

Q) Fill in: cytotoxicity at 70.5 h of "N#Cc1ccc(CNCCn2cccn2)c(F)c1" is ___
A) 13.7

Q) Which cytotoxicity at 70.5 h value is on record for "CCS(=O)(=O)N1C[C@@H](O)[C@H](N2CCc3ccccc3C2)C1" ?
A) -5.96

Q) Fill in the blank: the reported cytotoxicity at 70.5 h of "COc1cccc2c1ccn2CCNC(=O)C(C)C" is ____.
A) -6.5

Q) So what does the record say about cytotoxicity at 70.5 h for Cc1ccc(CN2CCCC3(CCCC(=O)N3)C2)s1 (centres undefined) ?
A) -8.14

Q) So what's the measured cytotoxicity at 70.5 h for this one? Cc1nc(C2CCCN(C(=O)COCCc3ccccc3)C2)no1 (centres undefined)
A) -6.43

Q) I would be grateful if you could share the reported cytotoxicity at 70.5 h for "O=C(NCc1ccccc1)[C@H]1C[C@@H]2CN(C(=O)NC3CCCC3)C[C@H]1O2" .
A) 16.8

---

The compounds listed here are annotated with their cytotoxicity at 70.5 h.
Assay: Human HepG2 cell viability assay in 384 well format
Type: toxicity, cell-based
Parameters: dose 125 nL, time 70.5 hour; concentration not given beside the values
Settings: HepG2 cells, read-out: Inhibition
Unit % implied. Number only.

Q) Given the entry CC(C)c1n[nH]c(C2CN(C(=O)c3cn4ccccc4n3)CCO2)n1 (configuration not stated) , report its measured cytotoxicity at 70.5 h.
A) 15.7

---
Q) For the compound shown here, "CCCN1CCCn2c(nc(CNC(=O)c3nccn3C)cc2=O)C1" , give the reported cytotoxicity at 70.5 h.
A) -9.48

Q) Tell me the measured cytotoxicity at 70.5 h of CCc1cc(N2CCC3(CCCNC3=O)C2)nc(N2CCOCC2)n1 (configuration not stated) , please.
A) -4.73

Q) Give its cytotoxicity at 70.5 h value. Item: CCc1nc2n(n1)CC(NCc1nc(Cc3ccccc3)no1)CC2 (configuration not stated)
A) 25.4

Q) Quick check: cytotoxicity at 70.5 h of CCNC(=O)N1CCC(NC(=O)NCCc2cccc(C)c2)C1 (configuration not stated) ?
A) 4.49

Q) I would be grateful if you could share the reported cytotoxicity at 70.5 h for "CNC(=O)CS(=O)(=O)C1CCN(S(=O)(=O)C2CC2)CC1" .
A) -3.01

Q) Need cytotoxicity at 70.5 h of NC(=O)C(Cc1ccccc1)NS(=O)(=O)Cc1ccccc1F (configuration not stated) , thanks.
A) -15

---

Experiment: Human HepG2 cell viability assay in 384 well format
Type: toxicity, cell-based
Design: dose 125 nL, time 70.5 hour; concentration not given beside the values
Conditions: HepG2 cells, read-out: Inhibition
ASSAY_ENDPOINT: cytotoxicity at 70.5 h (%)
Field format: number, assumed %, no unit text.

Example cases with answers are listed next.
Q) GET /values?readout=cytotoxicity at 70.5 h&item= CCN(C1CCS(=O)(=O)C1)S(=O)(=O)c1cccc2cc(C)cnc12 (stereo not drawn)
A) 2.06

Q) Give the measured cytotoxicity at 70.5 h of CC(C)CC(NC(=O)c1cccc(F)c1F)C(=O)Nc1cc[nH]n1 (stereo not drawn) .
A) -1.3

Next:
Q) What value of cytotoxicity at 70.5 h has been reported for the following compound? "CC(C)N1CCc2c(C(=O)N3CCOCC3)nn(C)c2C1"
A) 0.371

Q) Reported cytotoxicity at 70.5 h for "O=C1Cc2cc(NC(=O)N3CCCN(Cc4cccs4)CC3)ccc2N1" : what is it?
A) -4.49

Q) Please give the measured cytotoxicity at 70.5 h for this compound: CC(C)n1ccnc1C1CCCN(c2nc3ccccc3s2)C1 (stereo not drawn)
A) 2.12

Q) What does the data say about its cytotoxicity at 70.5 h? Entry: Cc1cc(C)c2c(c1)C(NC(=O)CSCC(N)=O)CCO2 (stereo not drawn)
A) -9.85

Q) Look at this compound and give its reported cytotoxicity at 70.5 h. "C[C@@H](O)CNC(=O)c1nc(CC(=O)Nc2cccc(C(F)(F)F)c2)no1"
A) -23.7

Q) For the compound shown here, "Cc1ccnc(C2CCN(C(=O)c3cnn(C)c3)CC2)n1" , give the reported cytotoxicity at 70.5 h.
A) 23.3

Q) Consider the compound "CC(C)Nc1ncc(-c2ccncc2)c([C@@H]2CCCO2)n1" and give its measured cytotoxicity at 70.5 h.
A) -8.69

Q) Consider the compound shown here: O=C(C1CCC2(CCN(c3ncccn3)CC2)CO1)N1CCCC1 (stereo not drawn) What is its recorded cytotoxicity at 70.5 h?
A) -5.27

Q) cytotoxicity at 70.5 h for CNC(=O)c1sc2ccccc2c1CC1CCCN1Cc1cnc(C)s1 (stereo not drawn) ?
A) -10.5

Q) Report cytotoxicity at 70.5 h for "Cc1cccc(Cn2cc(Br)c(NS(C)(=O)=O)n2)c1" please.
A) -6.39

Q) Please look up its cytotoxicity at 70.5 h: "O=C(c1ccc2c(c1)COC2)N1CCN(CC2CC2)CC1"
A) -7.78

Q) Would you kindly share the measured cytotoxicity at 70.5 h for "Cn1c(CN2CCOCC2)cc(=O)c(O)c1CN1CCCCC1" ?
A) -4.64

Q) Could you tell me which cytotoxicity at 70.5 h is on file for "CN(C)Cc1cnc2n1CCN(C(=O)C1CC=CC1)CC2" ?
A) -12.7

Q) Quick one: cytotoxicity at 70.5 h of CCC(C)(COc1ncccc1Cl)NCC(=O)NCC(C)C (stereo not drawn) ?
A) -30.2

Q) Quick one: cytotoxicity at 70.5 h for O=C(c1cscn1)N1CCC(Cc2cnc3[nH]ccc3c2)C1 (stereo not drawn) ?
A) -1.17

Q) Tell me the measured cytotoxicity at 70.5 h of "O=C(c1occc1CN1C(=O)Cc2ccccc21)N1CCCCCC1" , please.
A) -3.4

Q) Which cytotoxicity at 70.5 h is listed for CC(=O)N1CCCC1c1nc(C)no1 (stereo not drawn) ?
A) 15.6

Q) What does the record list as cytotoxicity at 70.5 h for OC(CN1CCC(CNCc2ccccn2)CC1)c1ccccc1 (stereo not drawn) ?
A) 1.35
